This collection of values is drawn from ChEMBL document CHEMBL1148461.

- target_of_assay: B2 bradykinin receptor (Homo sapiens) (UniProt P30411)
- Sequence (P30411 whole entry): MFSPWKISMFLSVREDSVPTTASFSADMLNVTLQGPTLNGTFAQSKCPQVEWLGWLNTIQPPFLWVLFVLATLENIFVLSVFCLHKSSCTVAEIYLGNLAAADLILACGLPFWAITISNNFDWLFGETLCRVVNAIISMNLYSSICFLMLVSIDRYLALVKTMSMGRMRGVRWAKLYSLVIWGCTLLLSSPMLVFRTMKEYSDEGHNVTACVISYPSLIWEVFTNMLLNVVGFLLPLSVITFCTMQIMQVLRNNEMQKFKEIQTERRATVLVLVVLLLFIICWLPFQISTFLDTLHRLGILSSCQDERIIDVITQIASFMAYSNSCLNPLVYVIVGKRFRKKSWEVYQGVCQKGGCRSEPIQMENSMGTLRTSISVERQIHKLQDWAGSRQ
- test_method_notes: Relative induced inositol phosphate formation in CHO cells expressing the human B2 receptor compared to bradykinin (10 nM)
- Type: functional, cell-based
Relative agonistic activity values by entry
readout_kind: Relative agonistic activity

{"smiles_string": "Cc1cc(OCc2ccccn2)c2cccc(OCc3c(Cl)ccc(N(C)C(=O)CNC(=O)/C=C/c4ccc(C(=O)Nc5ccncc5)cc4)c3Cl)c2n1", "readout_kind": "Relative agonistic activity", "assay_value": "47.4%"}
{"smiles_string": "Cc1cc(OCc2ccccn2)c2cccc(OCc3c(Cl)ccc(N(C)C(=O)CNC(=O)/C=C/c4ccc(NC(=O)Cc5ccncc5)nc4)c3Cl)c2n1", "readout_kind": "Relative agonistic activity", "assay_value": "40.3%"}
{"smiles_string": "CNC(=O)c1ccc(/C=C/C(=O)NCC(=O)N(C)c2ccc(Cl)c(COc3cccc4c(OCc5ccccn5)cc(C)nc34)c2Cl)cc1OC", "readout_kind": "Relative agonistic activity", "assay_value": "73.9%"}
{"smiles_string": "Cc1cc(OCc2ccccn2)c2cccc(OCc3c(Cl)ccc(N(C)C(=O)CNC(=O)/C=C/c4ccc(NC(=O)c5ccncc5)cc4)c3Cl)c2n1", "readout_kind": "Relative agonistic activity", "assay_value": "26.9%"}

----------
- target_of_assay: B2 bradykinin receptor (Cavia porcellus, UniProt O70526)
- Sequence (O70526 whole entry): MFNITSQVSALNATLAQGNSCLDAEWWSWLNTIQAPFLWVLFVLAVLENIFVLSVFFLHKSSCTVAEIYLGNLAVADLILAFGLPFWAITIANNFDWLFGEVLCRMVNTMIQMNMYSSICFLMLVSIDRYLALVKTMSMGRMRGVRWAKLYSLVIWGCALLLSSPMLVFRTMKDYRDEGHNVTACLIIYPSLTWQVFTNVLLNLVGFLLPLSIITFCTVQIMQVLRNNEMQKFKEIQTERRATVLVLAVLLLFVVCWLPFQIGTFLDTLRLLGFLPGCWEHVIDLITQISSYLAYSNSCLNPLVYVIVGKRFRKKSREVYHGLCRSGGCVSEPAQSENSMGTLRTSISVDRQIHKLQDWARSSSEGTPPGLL
- test_method_notes: Concentration required to inhibit specific binding of [3H]-BK(0.06 nM) to the bradykinin receptor B2
// assign T if IC50 falls strictly below 5 nM, else F (ties count as F)

{"smiles_string": "CNC(=O)c1ccc(/C=C/C(=O)NCC(=O)N(C)c2ccc(Cl)c(COc3cccc4c(OCc5ccccn5)cc(C)nc34)c2Cl)cc1", "group_label": "T"}
{"smiles_string": "COc1nc2c(OCc3c(Cl)ccc(N(C)C(=O)CNC(=O)/C=C/c4ccc(NC(C)=O)nc4)c3Cl)cccc2n1Cc1ccccc1", "group_label": "F"}
{"smiles_string": "CCOC(=O)COc1cc(C)nc2c(OCc3c(Cl)ccc(N(C)C(=O)CNC(=O)/C=C/c4ccc(C(=O)NC)cc4)c3Cl)cccc12", "group_label": "F"}
{"smiles_string": "CNC(=O)c1ccc(/C=C/C(=O)NCC(=O)N(C)c2ccc(Cl)c(COc3cccc4c(OCC(=O)O)cc(C)nc34)c2Cl)cc1", "group_label": "F"}
{"smiles_string": "CNC(=O)c1ccc(/C=C/C(=O)NCC(=O)N(C)c2ccc(Cl)c(COc3cccc4c(OCC(=O)N(C)C)cc(C)nc34)c2Cl)cc1", "group_label": "F"}
{"smiles_string": "COCCn1c(OC)nc2c(OCc3c(Cl)ccc(N(C)C(=O)CNC(=O)/C=C/c4ccc(NC(C)=O)nc4)c3Cl)cccc21", "group_label": "T"}
{"smiles_string": "CC(=O)Nc1ccc(/C=C/C(=O)NCC(=O)N(C)c2ccc(Cl)c(COc3cccc4c(OCc5ccccn5)cc(C)nc34)c2Cl)cn1", "group_label": "T"}
